Can you tell me TGI for the items I'm about to list?
tested on: SNB-78 CNS; assay: NCI tumour cell line growth inhibition, 48 h

Example entries begin here.
CC1(C)OC(COCCOCCCCCO)C(COCCOCCCCCO)O1 (stereo not drawn)
> 100 µM
CC1=C(C(=O)CC(=O)C(=O)NC2C3CC4CC(C3)CC2C4)Sc2ccccc2N1 (stereo not drawn)
> 100 µM

## Input Consider the molecule shown here: "O=C(O)[C@@H]1CCCC[C@@H]1C(=O)N(C1CCCCC1)C1CCCCC1" What is its recorded TGI?
## Output > 100 µM

---

tested on: OVCAR-5 ovarian; assay: NCI tumour cell line growth inhibition, 48 h
Can you tell me GI50 for the items I'm about to list?

Example entries begin here.
Fc1c[c-]c(-c2ccccn2)c(F)c1.[CH3-].[Pt+2].c1ccc(P(C[PH+](c2ccccc2)c2ccccc2)c2ccccc2)cc1
0.98 µM
Oc1[nH]c2ccccc2c1/C=c1/cc2c(c(-c3ccc(C(F)(F)F)cc3)n1)=Nc1ccccc1-2
11.8 µM

## Input Consider the compound shown here: "O=C(/C=C/c1cn(-c2ccccc2)nc1-c1ccc([N+](=O)[O-])cc1)c1ccc(Cl)cc1" What is its recorded GI50?
## Output > 100 µM

Every entry's value here was drawn from PubChem BioAssay (NCI).
